# melting point per record follows

smilesInput	observedValue
COc1cc2c(Nc3ccc(Cl)cc3F)ncnc2cc1OCCOc1cccnc1	188 to 190 °C
COc1cc2c(Nc3ccc(Cl)cc3F)ncnc2cc1OCCN(C)c1cc(C)nc(C)c1	208 to 212 °C
COc1cc2c(Nc3ccc(Cl)cc3F)ncnc2cc1OCc1ccnc(C#N)c1	209 to 213 °C
COc1cc2c(Nc3ccc(Cl)cc3F)ncnc2cc1OCCn1ccccc1=O	209 to 211 °C
COc1cc2c(Oc3ccc(Cl)cc3F)ncnc2cc1OCc1ccncc1	197 to 198 °C
COc1cc2c(Nc3cc(O)c(C)cc3F)ncnc2cc1OCc1ccnc(Cl)c1.Cl	245 to 250 °C

If you can, please state the reported melting point value of COc1cc2c(Nc3ccc(C)c(OC(C)=O)c3)ncnc2cc1OCc1cccnc1 .
113 to 115 °C

What do we get for COc1cc2c(Nc3cc(O)c(Cl)cc3F)ncnc2cc1OCc1ccsc1.Cl ?
277 to 281 °C

What do we get for COc1cc2c(Nc3ccc(Cl)cc3F)ncnc2cc1OCc1cccnc1.Cl ?
216 to 221 °C

The origin of these recorded values is patent US6362336B1.
